Assay: reduction of polyQ htt aggregates in cells – imaging, exon1htt(103Q)mCFP cells, high-content imaging, primary screen (AID 483);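 note: compound exposure lasted 3 days before fixation; percent of the per-plate median nuclei count of sample wells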
Conditions: exon1htt(103Q)mCFP cell line, aggregate imaging, at 2 µM; measured here: cell count, toxicity
measurement label: nuclei count (%)
Dear colleague, please return just the value in %, with no unit written.

Please review the entries below; each comes with its answer.
COc1ccc(-c2nc(C)c(C(C)=O)n2O)cc1OC ... 102
Cn1c(-c2ccccc2)c(CCO)c2ccccc21 ... 88.3
COc1ccc(-c2c3c(=O)n(C)c(=O)n(C)c3cn2-c2cccc(OC)c2)cc1 ... 110
CCOC(=O)c1sc(NC(=O)CNC(=O)Cn2cnc3sc(C)c(C)c3c2=O)nc1C ... 112
CCN(Cc1nc2ccccc2c(=O)[nH]1)Cc1nc2cc(OC)c(OC)cc2c(=O)[nH]1 ... 113

Fill in nuclei count for record Nc1cc(N)nc(SCc2ccccc2)n1
103

Fill in nuclei count for record CS(=O)(=O)Nc1ccccc1C(=O)O
113

Fill in nuclei count for record CCOC(=O)c1sc2nc(SCC#N)n(CCCN3CCCC3=O)c(=O)c2c1C
89.9

###

Parameter: nuclei count. Scope: all listed entries.
Test: endothelial E-selectin expression blockers – imaging, HUVEC, immunofluorescence, MLSMR starter and 10KST1 sets, primary screen (AID 487);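 for nuclei count: 100% = median nuclei count of all wells on the same plate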
Conditions: HUVEC TNFalpha-induced E-selectin immunofluorescence imaging, at 2 µM; measured here: cell number, toxicity
Dear colleague, please return just the value in %, with no unit written.

Please review the entries below; each comes with its answer.
Cc1cc(=O)oc2cc(OCC(=O)OCc3nnc(-c4ccccc4)o3)ccc12 ... 121
CCOc1ccc(/C=N/n2cnnc2)cc1 ... 117
C=CCn1cnc2c(NCc3ccccc3)ncnc21 ... 142

Fill in nuclei count for record Cc1cc(C)n(CC(=O)NC2CCCCC2)n1
114

###

Test: endothelial E-selectin expression blockers – imaging, HUVEC, immunofluorescence, MLSMR starter and 10KST1 sets, primary screen (AID 487);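 for inhibition: signal is fraction of cell area covered by stained E-selectin grains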
Conditions: HUVEC TNFalpha-induced E-selectin immunofluorescence imaging, at 2 µM; stronger effect = higher value
Parameter: inhibition. Scope: all listed entries.
Dear colleague, please return just the value in %, with no unit written.

Please review the entries below; each comes with its answer.
O=C(O)CCC(=O)NC1CCCCC1NC(=O)CCC(=O)O (stereo unspecified) ... -189
COc1ccc(Cc2nn3c(-c4cc(OC)c(OC)c(OC)c4)nnc3s2)cc1 ... 20.8
O=C(Nc1ccc2c(c1)OCCO2)c1cnc2n(c1=O)CCS2 ... -8.2

Fill in inhibition for record COc1ccc(-n2c(COc3cccc(C)c3)nnc2SCC(=O)NCc2ccco2)cc1
-54.8

Fill in inhibition for record COC1CCCCC1NS(=O)(=O)c1ccccc1 (stereo unspecified)
19.4

Fill in inhibition for record CC(C)CNS(=O)(=O)c1ccc(CCC(=O)NCc2ccco2)cc1
-57.5

###

Biological target: Voltage-gated potassium channel subunit beta-2 (Rattus norvegicus) (UniProt P62483)
Sequence (P62483 whole entry, looked up): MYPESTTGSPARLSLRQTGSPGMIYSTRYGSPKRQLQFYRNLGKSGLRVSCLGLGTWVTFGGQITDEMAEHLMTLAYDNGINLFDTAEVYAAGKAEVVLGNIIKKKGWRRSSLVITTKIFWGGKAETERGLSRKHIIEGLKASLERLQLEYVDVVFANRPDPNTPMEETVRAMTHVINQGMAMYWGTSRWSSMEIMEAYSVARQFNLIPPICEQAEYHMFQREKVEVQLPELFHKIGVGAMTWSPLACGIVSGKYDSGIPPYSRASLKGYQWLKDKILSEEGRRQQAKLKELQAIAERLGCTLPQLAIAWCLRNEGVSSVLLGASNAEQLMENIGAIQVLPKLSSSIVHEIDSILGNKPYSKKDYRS
Experiment: inhibitors of rat Kvbeta2 reductase activity – biochemical, NADPH fluorescence, primary screen (AID 622);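 note: slope of raw intensity against log time taken from 70 to 1610 s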
Conditions: recombinant KvBeta, 4-cyanobenzaldehyde reduction, at 10 µM, stronger effect = higher value
Parameter: fluorescence slope. Scope: all listed entries.
Answer with a number only.

Please review the entries below; each comes with its answer.
CCCNC(=O)c1c(N)n(-c2cc(OC)cc(OC)c2)c2nc3ccccc3nc12 ... -0.367
CC(CC(=O)NCc1ccccc1)C1CCCO1 (stereo unspecified) ... -0.463
Cc1ccc2occ(CN3CCN(c4ccccc4)CC3)c(=O)c2c1 ... -0.454
CC(NC(=O)NC12CC3CC(CC(C3)C1)C2)C1CCCO1 (stereo unspecified) ... -0.439
O=C(NCc1cccs1)C1CC(c2ccccc2O)=NO1 (stereo unspecified) ... -0.601
Cc1cc(N)n2nc(-c3ccccc3)cc2n1 ... -0.421

Fill in fluorescence slope for record O=C1c2ccccc2C(Nc2ccc3c(c2)OCCO3)N1Cc1ccco1 (stereo unspecified)
-0.589

Fill in fluorescence slope for record CCOC(=O)c1cc(C)n(CCCN2CCOCC2)c1C
-0.473

Fill in fluorescence slope for record CCOC(=O)n1c(SCC(=O)N(CC)CC)nc2ccccc21
-0.597

Fill in fluorescence slope for record COC(=O)CN1C(=O)C(O)(CC(=O)c2ccc(C)cc2)c2cc(Br)ccc21 (stereo unspecified)
-0.436

Fill in fluorescence slope for record CC(=O)c1c(C)[nH]c(C(=O)OCc2nnc(-c3ccccc3)o2)c1C
-0.639

###

Experiment: inhibitors of larval lipid processing in zebrafish, primary screen, whole organism, PED6 fluorescence, gall bladder and intestine (AID 686);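 note: larvae 5 to 7 days old with five fish per well; signal comes from phospholipase A2 cleavage of quenched PED6 carried via bile; overnight exposure to compound and PED6 before scoring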
Conditions: Zebrafish larvae PED6 lipid processing, fluorescence scoring; screened at 20 µM (by protocol)
The source made the active and inactive calls.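 The calls were made as follows: active = a full or partial loss of lipid-probe fluorescence in the fish gall bladder, intestine or both, judged by eye; inactive = no fluorescence loss, or compound toxic to the fish.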
measurement label: outcome

Please review the entries below; each comes with its answer.
COc1ccc(COC(=O)c2n[nH]c3ccccc23)cc1F ... inactive
CN(C)c1ccc(C2C3=C(CCCC3=O)OC3=C2C(=O)CCC3)cc1 ... inactive
CCCn1c(=O)c(C(=O)NCc2ccccn2)c(O)c2ccccc21 ... inactive
CCCNC(=O)c1cc(-c2ccco2)on1 ... inactive
c1ccc(-c2cc(CSc3nc4ccccc4[nH]3)on2)cc1 ... inactive

Fill in outcome for record O=C(NCCN1CCOCC1)c1ccc(CS(=O)(=O)Cc2ccccc2F)o1
inactive

Fill in outcome for record COC(=O)c1ccc(CSc2nc3ccccc3s2)o1
inactive

Fill in outcome for record COc1ccccc1NC(=O)N(Cc1ccco1)Cc1cc2c(C)ccc(C)c2[nH]c1=O
inactive

Fill in outcome for record CCc1n[nH]c2c1C(=O)CC(C)(C)C2
inactive

Fill in outcome for record O=C(O)CSc1ncn[nH]1
inactive

###

Test: endothelial E-selectin expression blockers – imaging, HUVEC, immunofluorescence, MLSMR starter and 10KST1 sets, primary screen (AID 487);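 for nuclei count: 100% = median nuclei count of all wells on the same plate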
Conditions: HUVEC TNFalpha-induced E-selectin immunofluorescence imaging, at 2 µM; measured here: cell number, toxicity
measurement label: nuclei count (%)
Dear colleague, please return just the value in %, with no unit written.

Please review the entries below; each comes with its answer.
Cc1cc(C)cc(NS(=O)(=O)c2ccc3[nH]c(=O)[nH]c3c2)c1 ... 115
CCC(C)(C(=O)NC1CCCC1)N(Cc1cccs1)C(=O)Cc1cccs1 (stereo not given) ... 112
Nc1c(C(=O)NCc2ccco2)nnn1Cc1ccccc1 ... 115
CCSCc1nnc(SCC(=O)Nc2cccc(SC)c2)n1C ... 147
CCC(=O)N1CCc2cc(S(=O)(=O)CCC(=O)Nc3c(C)n(C)n(-c4ccccc4)c3=O)ccc21 ... 121

Lab note: next compound to report on.
Fill in nuclei count for record CCOc1ccccc1Nc1nnc(SCC(=O)N2CCCC2)s1
100

###

Parameter: inhibition. Scope: all listed entries.
Assay: TLR3 IRF3 reporter activation blockers – cell-based, poly I:C stimulus, luciferase, 10K MLSCN set, primary screen (AID 602277)
Settings: HEK293-TLR3 RL24 IRF3 luciferase reporter, at 10 µM, stronger effect = higher value
Dear colleague, please return just the value in %, with no unit written.

Fill in inhibition for record COc1ccc(S(=O)(=O)Cc2ccc(C(=O)N3CCN(Cc4ccccc4)CC3)o2)cc1
28.9

Fill in inhibition for record O=C(Nc1ccc2c(c1)OCCO2)c1cnc2n(c1=O)CCS2
-177

Fill in inhibition for record CCN1CCN(CCNC(=O)c2cn(C(C)c3ccccc3F)nn2)CC1 (stereo not drawn)
9.63

###

Assay: TLR3 IRF3 reporter activation blockers – cell-based, poly I:C stimulus, luciferase, 10K MLSCN set, primary screen (AID 602277)
Conditions: HEK293-TLR3 RL24 IRF3 luciferase reporter, at 10 µM, stronger effect = higher value
Parameter: inhibition. Scope: all listed entries.
Dear colleague, please return just the value in %, with no unit written.

Please review the entries below; each comes with its answer.
CCOC(=O)CS(=O)(=O)c1nc(-c2ccccc2)cc(C(F)(F)F)n1 ... 32.7
Cc1cc(C(=O)COC(=O)CCc2nc3ccccc3s2)c(C)n1C ... 7.6
CCOC(=O)C1CCN(C(=O)CSc2cc(=O)n(CC)c3ccccc23)CC1 ... 38.8

Fill in inhibition for record CCOC(=O)/C=C1\SCC(=O)N1Cc1nnc(-c2ccccc2Br)o1
10.1

Fill in inhibition for record O=c1c2[nH]c3ccc(Cl)cc3c2ncn1Cc1ccccn1
5.03

Fill in inhibition for record COc1ccc(CCNC(=O)c2cc(C(C)C)on2)cc1OC
18.2

Fill in inhibition for record CC1CCCC(N2CCN(C(=O)c3ccc(F)cc3)CC2)C1 (stereo unspecified)
43.9

Fill in inhibition for record Cc1ccc2nc(-c3ccc(S(=O)(=O)N4CCOCC4)cc3)cn2c1
-13.9

###

Parameter: inhibition. Scope: all listed entries.
Experiment: inhibitors of TNFa-induced NFkB p65 translocation, primary screen, imaging, HUVEC, MLSMR starter and 10KST1 sets (AID 438);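 note: compound added about 3h40 before a 20 min TNFalpha stimulation; signal is the nuclear over cytoplasmic p65 intensity ratio per well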
Details: HUVEC TNFa-induced p65 nuclear translocation; at 2 µM, stronger effect = higher value, 0% TNFa-plus-vehicle, 100% no-TNFa wells
Dear colleague, please return just the value in %, with no unit written.

Please review the entries below; each comes with its answer.
CC(C)c1ccc(CNc2ccc(N3CCOCC3)cc2)cc1 ... -11.3
O=C(COC(=O)c1ccc(Br)o1)Nc1ccc(S(=O)(=O)N2CCCC2)cc1 ... -3.6
N#Cc1nc(-c2ccc(Cl)cc2)oc1NCCc1ccccn1 ... 18.4

Fill in inhibition for record CC1(C)CC(=O)C2=C(C1)Nc1ccccc1N=C2
-6.9

Fill in inhibition for record O=c1oc2ccccc2c(O)c1CN1CCCCC1
2.9
